Reported Tm is given for each of the following variants.
B1: Ribonuclease HI, P0A7Y4 (parent)
chain: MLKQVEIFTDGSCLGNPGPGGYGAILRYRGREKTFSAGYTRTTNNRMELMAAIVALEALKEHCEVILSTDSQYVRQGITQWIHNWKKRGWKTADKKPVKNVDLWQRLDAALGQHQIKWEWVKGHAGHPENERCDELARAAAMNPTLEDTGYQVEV

Variants of: B1
Conditions: Escherichia coli (strain K12); pH 3; Thermal; CD; glycine-HCl 10 mM; reversible: yes; structure 2RN2; whole UniProt chain shown
Answer format: numeric, °C implied, no suffix.

VARIANT NOTATION	TEST VALUE
G77A	46.9
D94R K95G	53.4
K95G	49.8
K91R	49.8

--- query ---
Incoming: Can you share its Tm? I mean this variant: `K95N`
Outgoing: 49.8
